target: KAT8 Full length enzyme (Homo sapiens (Human), UniProt Q9H7Z6); experiment: KAT8 assay (SAMDI-MS acetylation of H3 1-21 peptide); format: biochemical; conditions: Morrison equation fit; replicate number in parentheses; read-out: KAT8 Ki (nM) (replicate number)
Sequence (Q9H7Z6 whole entry): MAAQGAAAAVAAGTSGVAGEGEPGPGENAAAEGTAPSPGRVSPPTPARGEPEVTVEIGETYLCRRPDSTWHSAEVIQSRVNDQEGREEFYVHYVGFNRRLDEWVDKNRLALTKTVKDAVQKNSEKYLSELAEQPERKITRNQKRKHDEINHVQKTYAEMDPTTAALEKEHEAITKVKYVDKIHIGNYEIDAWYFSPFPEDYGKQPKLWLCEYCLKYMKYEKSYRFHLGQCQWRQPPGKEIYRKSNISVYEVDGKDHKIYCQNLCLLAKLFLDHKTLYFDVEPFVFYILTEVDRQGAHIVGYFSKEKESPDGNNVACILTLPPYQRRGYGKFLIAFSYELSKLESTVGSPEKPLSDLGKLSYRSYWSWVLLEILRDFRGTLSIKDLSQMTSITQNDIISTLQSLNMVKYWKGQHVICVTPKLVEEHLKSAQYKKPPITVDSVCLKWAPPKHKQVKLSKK
Recorded Endpoint: Ki

>>> result("COc1cc2c(NS(=O)(=O)c3c(OC)cc(CN4CC[C@@H](F)C4)cc3OC)noc2cc1Nc1cc(C2CC2)n[nH]1")
"2190 nM"
>>> result("COc1cc2c(NS(=O)(=O)c3c(OC)cc(CN(C)C)cc3OC)noc2cc1Nc1cc(C2CC2)n[nH]1")
"2780 nM"
>>> result("COc1cc2c(NS(=O)(=O)c3c(OC)cccc3OC)noc2cc1Nc1ncccn1")
"> 19500 nM"
>>> result("COc1cc2c(NS(=O)(=O)c3c(OC)cc([C@H]4COCCO4)cc3OC)noc2cc1Nc1cc(C2CC2)[nH]n1")
"865 nM"
>>> result("COc1cc2c(NS(=O)(=O)c3c(OC)cccc3OC)noc2cc1Nc1cc(C(C)(F)F)n[nH]1")
"> 13000 nM"
>>> result("COc1cc2c(NS(=O)(=O)c3cc4ccccc4cc3OC)noc2cc1Nc1cc(C2CC2)n[nH]1")
"77 nM"
>>> result("COc1cc2c(NS(=O)(=O)c3c(OC)cccc3OC)noc2cc1Nc1cc(C(C)C)n[nH]1")
"709 nM"

---

Below: a set of entries, each annotated with reported Ki.
molecular target: KAT6A Full length enzyme (Homo sapiens (Human)); assay: KAT6A assay (SAMDI-MS acetylation of H3 1-21 peptide); format: biochemical; details: Morrison equation fit; replicate number in parentheses; read-out: KAT6A Ki (nM) (replicate number)
Sequence (Q92794 other isoform, or with tags, fused parts or gaps): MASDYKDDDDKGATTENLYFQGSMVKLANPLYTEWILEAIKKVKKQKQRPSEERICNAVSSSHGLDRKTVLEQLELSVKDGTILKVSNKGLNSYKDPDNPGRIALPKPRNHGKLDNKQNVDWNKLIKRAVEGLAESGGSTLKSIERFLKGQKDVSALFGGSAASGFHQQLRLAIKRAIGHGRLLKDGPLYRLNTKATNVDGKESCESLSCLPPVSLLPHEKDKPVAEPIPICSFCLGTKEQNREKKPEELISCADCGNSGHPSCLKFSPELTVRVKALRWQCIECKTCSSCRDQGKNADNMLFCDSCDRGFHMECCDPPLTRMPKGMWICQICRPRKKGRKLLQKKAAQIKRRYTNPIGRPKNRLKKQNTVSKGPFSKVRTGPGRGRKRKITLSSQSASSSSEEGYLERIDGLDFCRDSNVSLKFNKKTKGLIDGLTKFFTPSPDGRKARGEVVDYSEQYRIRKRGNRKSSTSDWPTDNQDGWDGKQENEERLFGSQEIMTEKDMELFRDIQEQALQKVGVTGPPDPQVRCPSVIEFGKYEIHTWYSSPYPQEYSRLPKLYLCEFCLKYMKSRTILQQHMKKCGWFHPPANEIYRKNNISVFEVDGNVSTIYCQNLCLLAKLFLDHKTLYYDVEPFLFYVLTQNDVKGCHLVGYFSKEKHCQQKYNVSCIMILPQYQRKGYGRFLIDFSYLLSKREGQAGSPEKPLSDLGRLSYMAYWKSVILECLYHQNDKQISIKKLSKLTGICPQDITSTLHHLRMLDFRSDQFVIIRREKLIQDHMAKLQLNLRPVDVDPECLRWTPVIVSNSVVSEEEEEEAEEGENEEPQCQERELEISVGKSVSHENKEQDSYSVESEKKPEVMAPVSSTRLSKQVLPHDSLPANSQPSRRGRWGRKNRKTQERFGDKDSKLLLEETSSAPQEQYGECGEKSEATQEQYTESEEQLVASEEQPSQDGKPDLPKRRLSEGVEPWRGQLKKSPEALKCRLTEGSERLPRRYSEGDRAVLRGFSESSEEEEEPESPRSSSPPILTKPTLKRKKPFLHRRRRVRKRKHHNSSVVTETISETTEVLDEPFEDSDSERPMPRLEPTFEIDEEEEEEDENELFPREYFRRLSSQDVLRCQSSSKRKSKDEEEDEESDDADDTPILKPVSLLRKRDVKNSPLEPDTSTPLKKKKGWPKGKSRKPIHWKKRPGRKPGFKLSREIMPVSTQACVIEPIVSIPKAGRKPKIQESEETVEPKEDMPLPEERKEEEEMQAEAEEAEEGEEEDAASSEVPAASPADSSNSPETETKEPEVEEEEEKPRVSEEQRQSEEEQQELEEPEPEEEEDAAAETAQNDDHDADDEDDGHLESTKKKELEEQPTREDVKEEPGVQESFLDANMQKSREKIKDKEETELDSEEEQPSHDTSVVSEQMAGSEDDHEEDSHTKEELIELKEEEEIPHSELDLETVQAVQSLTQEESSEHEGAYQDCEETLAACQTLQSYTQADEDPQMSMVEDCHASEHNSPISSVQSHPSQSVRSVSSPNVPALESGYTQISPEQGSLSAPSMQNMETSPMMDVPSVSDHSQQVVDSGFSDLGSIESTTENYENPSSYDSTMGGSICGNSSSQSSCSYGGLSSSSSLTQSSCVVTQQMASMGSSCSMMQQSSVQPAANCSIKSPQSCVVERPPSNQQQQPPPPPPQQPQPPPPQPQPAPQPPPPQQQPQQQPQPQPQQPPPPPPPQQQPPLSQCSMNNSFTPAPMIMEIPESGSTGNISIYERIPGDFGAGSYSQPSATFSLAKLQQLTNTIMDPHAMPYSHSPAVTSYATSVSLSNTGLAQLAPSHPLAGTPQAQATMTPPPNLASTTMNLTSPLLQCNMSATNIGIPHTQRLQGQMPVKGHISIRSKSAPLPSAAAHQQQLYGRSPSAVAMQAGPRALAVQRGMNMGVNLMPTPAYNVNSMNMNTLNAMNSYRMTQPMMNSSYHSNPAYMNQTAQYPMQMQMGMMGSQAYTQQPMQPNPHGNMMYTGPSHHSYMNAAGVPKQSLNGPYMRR
Recorded Endpoint: Ki (nM)

>>> result_number("COc1cc2c(NS(=O)(=O)c3c(OC)cccc3OC)noc2cc1Nc1cc(C(F)F)n[nH]1")
0.1
>>> result_number("CCc1cc(Nc2cc3onc(NS(=O)(=O)c4ccc5c(c4)OCCO5)c3cc2OC)n[nH]1")
56.8
>>> result_number("COc1cc2c(NS(=O)(=O)c3c(OC)cc(C(C)N4CCOCC4)cc3OC)noc2cc1Nc1cc(C2CC2)n[nH]1 (single isomer, unassigned) [Example 207]")
2.3
>>> result_number("CCc1cc(Nc2cc3onc(NS(=O)(=O)c4c(OC)cc(-c5ccc(C)nn5)cc4OC)c3cc2OC)[nH]n1")
0.8
>>> result_number("COc1cc2c(NS(=O)(=O)c3c(OC)cc(CN4CC[C@@H](F)C4)cc3OC)noc2cc1Nc1cc(C2CC2)n[nH]1")
0.6
>>> result_number("COc1cc2c(NS(=O)(=O)c3c(OC)cccc3OC)noc2cc1Nc1cc(C(F)(F)F)n[nH]1")
31.2
>>> result_number("COc1cc2c(NS(=O)(=O)c3c(OC)cc(C(C)N4CC(F)C4)cc3OC)noc2cc1Nc1cc(C2CC2)[nH]n1 (single isomer, unassigned) [Example 209]")
1.4
>>> result_number("COc1cc2c(NS(=O)(=O)c3c(OC)cccc3OC)noc2cc1Nc1[nH]nc2c1CNC2")
4
>>> result_number("COc1cc2c(NS(=O)(=O)c3c(OC)cc(CN4CC(F)(F)C4)cc3OC)noc2cc1Nc1cc(C2CC2)n[nH]1")
0.4
>>> result_number("COc1cc2c(NS(=O)(=O)c3c(OC)cc(CN4CCC(OC)CC4)cc3OC)noc2cc1Nc1cc(C2CC2)n[nH]1")
1.7
>>> result_number("COc1cc2c(NS(=O)(=O)c3c(OC)cc(C4CCCN([C@@H]5CCOC5)C4)cc3OC)noc2cc1Nc1cc(C2CC2)n[nH]1 (single isomer, unassigned) [Example 159]")
1.1
>>> result_number("COc1cccc(OC)c1S(=O)(=O)Nc1noc2cc(Nc3cc[nH]n3)cc(OC)c12")
0.4
>>> result_number("COc1cc2c(NS(=O)(=O)c3c(OC)cc(C4COC(C)(C)CO4)cc3OC)noc2cc1Nc1cc(C2CC2)n[nH]1 (single isomer, unassigned) [Example 185]")
0.3

---

biological target: KAT5 Full length enzyme (Homo sapiens (Human), UniProt Q92993); assay: KAT5 assay (SAMDI-MS acetylation of H4 1-21 peptide); assay type: biochemical; conditions: Morrison equation fit; replicate number in parentheses; read-out: KAT5 Ki (nM) (replicate number)
Sequence (Q92993 whole entry): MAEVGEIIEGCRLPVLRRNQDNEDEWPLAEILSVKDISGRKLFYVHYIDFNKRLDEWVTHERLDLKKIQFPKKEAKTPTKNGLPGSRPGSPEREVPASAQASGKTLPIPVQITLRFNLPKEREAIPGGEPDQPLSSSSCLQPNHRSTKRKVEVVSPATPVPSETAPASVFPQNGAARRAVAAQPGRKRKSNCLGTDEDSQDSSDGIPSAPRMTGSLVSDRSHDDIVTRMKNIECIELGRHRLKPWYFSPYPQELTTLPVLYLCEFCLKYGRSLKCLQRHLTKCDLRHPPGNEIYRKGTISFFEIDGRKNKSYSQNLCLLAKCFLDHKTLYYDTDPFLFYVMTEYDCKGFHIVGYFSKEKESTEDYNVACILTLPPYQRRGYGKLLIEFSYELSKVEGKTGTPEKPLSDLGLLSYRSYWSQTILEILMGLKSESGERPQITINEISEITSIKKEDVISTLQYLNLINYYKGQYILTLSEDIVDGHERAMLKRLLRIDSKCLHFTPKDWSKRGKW
Below: a set of entries, each annotated with reported Ki.
Recorded Endpoint: Ki (nM)

>>> result_number("COc1cc2c(NS(=O)(=O)c3c(OC)cc(-c4cccnc4)cc3OC)noc2cc1Nc1cc(C2CC2)n[nH]1")
53.6
>>> result_number("COc1cc2c(NS(=O)(=O)c3c(OC)cccc3OC)noc2cc1Nc1cc(C2CCCC2)n[nH]1")
225
>>> result_number("COc1cc2c(NS(=O)(=O)c3c(OC)cccc3OC)noc2cc1Nc1cc([C@@H](C)O)n[nH]1 (single isomer, unassigned)")
1800
>>> result_number("COc1cccc(OC)c1S(=O)(=O)Nc1noc2cc(Nc3cccnn3)cc(OC)c12")
15700
>>> result_number("COc1cc2c(NS(=O)(=O)c3c(OC)cccc3OC)noc2cc1Nc1cc(C(C)CCO)[nH]n1 (stereo not shown)")
6020
>>> result_number("CCc1cc(Nc2cc3onc(NS(=O)(=O)c4c(OC)cc(-c5ccn(C)n5)cc4OC)c3cc2OC)[nH]n1")
158
>>> result_number("COc1cc2c(NS(=O)(=O)c3c(OC)cc(-c4ccccn4)cc3OC)noc2cc1Nc1cc(C2CC2)n[nH]1")
66.1

---

target: KAT8 Full length enzyme (Homo sapiens (Human), UniProt Q9H7Z6); test: KAT8 assay (SAMDI-MS acetylation of H3 1-21 peptide); format: biochemical; settings: Morrison equation fit; replicate number in parentheses; read-out: KAT8 Ki (nM) (replicate number)
Below: a set of entries, each annotated with reported Ki.
Recorded Endpoint: Ki (nM)

>>> result_number("COc1cc2c(NS(=O)(=O)c3c(OC)cc(-c4ncc(C)cn4)cc3OC)noc2cc1Nc1cc(C2CC2)n[nH]1")
1570
>>> result_number("COc1cc2c(NS(=O)(=O)c3c(OC)cc(C4CCCN(C)C4)cc3OC)noc2cc1Nc1cc(C2CC2)n[nH]1 (single isomer, unassigned) [Example 150]")
10300
>>> result_number("COc1cc2c(NS(=O)(=O)c3c(OC)cc(CN4CC(F)C4)cc3OC)noc2cc1Nc1cc(C2CC2)n[nH]1")
844
>>> result_number("COc1cc2c(NS(=O)(=O)c3c(OC)cc(C4COCC(C)(C)O4)cc3OC)noc2cc1Nc1cc(C2CC2)n[nH]1 (single isomer, unassigned)")
1030
>>> result_number("COc1cc2c(NS(=O)(=O)c3c(OC)cc(C4CCCCO4)cc3OC)noc2cc1Nc1cc(C2CC2)n[nH]1 (single isomer, unassigned)")
436
>>> result_number("COc1cc2c(NS(=O)(=O)c3c(OC)cc(-c4cscn4)cc3OC)noc2cc1Nc1cc(C2CC2)n[nH]1")
1120
>>> result_number("CCc1ccnc(Nc2cc3onc(NS(=O)(=O)c4c(OC)cccc4OC)c3cc2OC)n1")
6430
>>> result_number("COc1cc2c(NS(=O)(=O)c3c(OC)cc(C4CN(C)CCO4)cc3OC)noc2cc1Nc1cc(C2CC2)n[nH]1 (single isomer, unassigned) [Example 153]")
571
>>> result_number("CCc1cc(Nc2cc3onc(NS(=O)(=O)c4c(OC)cc(-c5cccc(C)n5)cc4OC)c3cc2OC)[nH]n1")
859

---

biological target: KAT5 Full length enzyme (Homo sapiens (Human), UniProt Q92993); test: KAT5 assay (SAMDI-MS acetylation of H4 1-21 peptide); type: biochemical; details: replicate number in parentheses; read-out: KAT5 Ki (nM) (replicate)
Recorded Endpoint: Ki

>>> result("COc1cc2c(NS(=O)(=O)c3c(OC)cc(N4CCN(C)CC4)cc3OC)noc2cc1Nc1cc(C2CC2)n[nH]1")
"67 nM"
>>> result("COc1cc2c(NS(=O)(=O)c3c(OC)cc(N4CC[C@@H](F)C4)cc3OC)noc2cc1Nc1cc(C2CC2)n[nH]1")
"8.7 nM"
>>> result("COc1cc2c(NS(=O)(=O)c3c(OC)cc(N4CCN(C)C(=O)C4)cc3OC)noc2cc1Nc1cc(C2CC2)n[nH]1")
"54.5 nM"
>>> result("COc1cc2c(NS(=O)(=O)c3c(OC)cc(C(=O)N4CC[C@H](F)C4)cc3OC)noc2cc1Nc1cc(C2CC2)n[nH]1")
"85.1 nM"

---

biological target: KAT8 Full length enzyme (Homo sapiens (Human)); assay: KAT8 assay (SAMDI-MS acetylation of H3 1-21 peptide); type: biochemical; conditions: Morrison equation fit; replicate number in parentheses; read-out: KAT8 Ki (nM) (replicate number)
Below: a set of entries, each annotated with reported log10 of Ki.
Recorded Endpoint: log10 of Ki (log10 of the value in nM)

>>> result_number("CCc1cc(Nc2cc3onc(NS(=O)(=O)c4c(OC)cccc4OC)c3cc2OC)[nH]n1")
3.36
>>> result_number("COc1cc2c(NS(=O)(=O)c3ccccc3OC)noc2cc1Nc1cc[nH]n1")
3.23
>>> result_number("COc1cc2c(NS(=O)(=O)c3c(OC)cccc3OC3CC3)noc2cc1Nc1cc[nH]n1")
3.09
>>> result_number("COc1cc2c(NS(=O)(=O)c3c(OC)cccc3OC)noc2cc1Nc1cc(C(C)(C)C)n[nH]1")
3.90
>>> result_number("CCOc1cccc(OC)c1S(=O)(=O)Nc1noc2cc(Nc3cc(C(C)C)[nH]n3)c(OC)cc12")
4.02
>>> result_number("COc1cc2c(NS(=O)(=O)c3ccc(Cl)cc3OC)noc2cc1Nc1cc[nH]n1")
2.95
>>> result_number("COc1cccc(OC)c1S(=O)(=O)Nc1noc2cc(Nc3ncccn3)cc(OC)c12")
4.16
>>> result_number("COc1cc2c(NS(=O)(=O)c3c(OC)cc(C4COC(C)(C)CO4)cc3OC)noc2cc1Nc1cc(C2CC2)n[nH]1 (single isomer, unassigned) [Example 186]")
2.77
>>> result_number("COc1cc2c(NS(=O)(=O)c3ccc(C)cc3OCC(F)F)noc2cc1Nc1cc(C(C)C)[nH]n1")
3.73
>>> result_number("COc1cc2c(NS(=O)(=O)c3c(OC)cccc3OC)noc2cc1Nc1cc(CC(C)C)n[nH]1")
3.53
>>> result_number("COc1cc2c(NS(=O)(=O)c3c(OC)cc(C4COC(C)(C)CO4)cc3OC)noc2cc1Nc1cc(C2CC2)n[nH]1 (single isomer, unassigned) [Example 185]")
3.09
>>> result_number("CCOc1ccccc1S(=O)(=O)Nc1noc2cc(Nc3cc(C(C)C)[nH]n3)c(OC)cc12")
4.11
